test: The drug is tested on Akkermansia muciniphila strain: DSM22959 for biotransformation under anaerobic condition. The drug concentrations were measured over 6 timepoints collected between 0 and 12 hours of incubation by liquid-chromatography-coupled mass spectrometry (LC–MS); format: ADME; set-up: dose 5 uM, timepoint 0, 1.5, 3, 6, 9, 12 hours; details: 5 µM
assay endpoint: Bacterial Biotransformation

Example entries begin here.
CO[C@H]1C[C@@H]2CC[C@@H](C)[C@@](O)(O2)C(=O)C(=O)N2CCCC[C@H]2C(=O)O[C@H]([C@H](C)C[C@@H]2CC[C@@H](OCCO)[C@H](OC)C2)CC(=O)[C@H](C)/C=C(\C)[C@@H](O)[C@@H](OC)C(=O)[C@H](C)C[C@H](C)/C=C/C=C/C=C/1C :: Compound NOT metabolized
C[C@H]1C[C@H]2[C@@H]3CCC4=CC(=O)C=C[C@]4(C)[C@@]3(F)[C@@H](O)C[C@]2(C)[C@@]1(O)C(=O)CO :: Compound NOT metabolized
COc1ccc([C@@H]2Sc3ccccc3N(CCN(C)C)C(=O)[C@@H]2OC(C)=O)cc1 :: Compound NOT metabolized
C[C@]12C=CC(=O)C=C1CC[C@@H]1[C@@H]2[C@@H](O)C[C@@]2(C)[C@H]1CC[C@]2(O)C(=O)CO :: Compound NOT metabolized
C[C@@H](NCCCc1cccc(C(F)(F)F)c1)c1cccc2ccccc12 :: Compound NOT metabolized

Query molecule follows.
# Bacterial Biotransformation lookup, item CN(Cc1cnc2nc(N)nc(N)c2n1)c1ccc(C(=O)N[C@@H](CCC(=O)O)C(=O)O)cc1 [METHOTREXATE]
Compound NOT metabolized
